# procedureText: amyloid nucleation score (Sup35N fusion, yeast selection) (log enrichment); library NNK1; higher = more nucleation; inactive = no reads after selection;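 note: zero at mode of non-aggregating sequences after 7 days selection at 30°C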
measuredQuantity: amyloid nucleation score

{"substance": "SRCCRYLKHVRSIGSVQVAS", "measuredValue": 1.16}
{"substance": "LCVSCARVKLLNRT", "measuredValue": -0.144}
{"substance": "VWRTQMFRV", "measuredValue": 0.37}
{"substance": "TSPSRIMS", "measuredValue": 1.12}
{"substance": "GRSCFGEHILNTPAISCNIT", "measuredValue": -0.288}
{"substance": "IAIFKYVKRDSSGKNCLSRS", "measuredValue": -0.242}
{"substance": "TRAWNGGCGALCRITFDPSC", "measuredValue": 2.6}
{"substance": "SRRKQIVGKVSVFFEASRFV", "measuredValue": -1.06}
{"substance": "SLWFTYCQ", "measuredValue": 0.751}
{"substance": "NSAPDP", "measuredValue": -0.948}
{"substance": "NEDLNS", "measuredValue": 0.194}
{"substance": "LSNRVLEGFNSSWYISIRGF", "measuredValue": -0.434}
{"substance": "VIITLSRCSRDHTDVMGTFV", "measuredValue": -0.81}
{"substance": "LVDSNFCVNVCAGQSRRVYG", "measuredValue": -0.712}
{"substance": "YSSCFRSGIF", "measuredValue": -0.68}
{"substance": "CPSEYQIAGMIASSYMHLGE", "measuredValue": 0.872}
{"substance": "LYAALIIDYA", "measuredValue": 0.681}
{"substance": "CVHQIVGLTRIPFGWELSWR", "measuredValue": -1.62}
